# credit: patent US20240239798A1

assay: Approximate solubility of amorphous 3-DM free base starting material in 27 solvent systems at RT; type: physicochemical; settings: organic solvent or mixture, thermodynamic from solid, IPA/H2O (9:1), RT
VALUE KIND: solubility

What the record says about [2H][C@@]12C[C@H](/C(=C\OC)C(=O)OC)[C@H](CC)CN1CCc1c2[nH]c2cccc(OC)c12 [3-DM free base, 3-deuteromitragynine] : solubility is 23 to 46 mg/mL

* * *

assay type: physicochemical; conditions: IPA, organic solvent or mixture; read-out: Approximate solubility
VALUE KIND: solubility

What the record says about [2H][C@@]12C[C@H](/C(=C\OC)C(=O)OC)[C@H](CC)CN1CCc1c2[nH]c2cccc(OC)c12 [3-DM free base, 3-deuteromitragynine] : solubility is > 36 mg/mL
